test system: HDQ-P1; assay: normalised response (% of control), CellTiter-Glo; higher = more viable cells (100 = DMSO, 0 = benzethonium chloride kill control); settings: incubation time: 72 h
quantity kind: normalised response (%)
One number for each entry, in %.

{"compound": "NC(=O)NO [Hydroxyurea] (100000 nM)", "normalised response, %": 97}

For every item in the list below, what is its measured normalised response?
1. COc1cc2c(N3CCN(C(=O)Nc4ccc(OC(C)C)cc4)CC3)ncnc2cc1OCCCN1CCCCC1 [Tandutinib] (1000 nM)
2. O=C(c1cc(Cc2n[nH]c(=O)c3ccccc23)ccc1F)N1CCN(C(=O)C2CC2)CC1 [Olaparib] (10000 nM)
3. CO[C@H](C(=O)[C@@H](O)[C@@H](C)O)[C@@H]1Cc2cc3cc(O[C@H]4C[C@@H](O[C@@H]5C[C@@H](O)[C@H](O)[C@@H](C)O5)[C@H](O)[C@@H](C)O4)c(C)c(O)c3c(O)c2C(=O)[C@H]1O[C@H]1C[C@@H](O[C@@H]2C[C@@H](O)[C@@H](O[C@@H]3C[C@](C)(O)[C@H](O)[C@@H](C)O3)[C@@H](C)O2)[C@H](O)[C@@H](C)O1 [Plicamycin] (10000 nM)
4. C[C@@H]1C[C@H]2[C@@H]3CCC4=CC(=O)C=C[C@]4(C)[C@@]3(F)[C@@H](O)C[C@]2(C)[C@@]1(O)C(=O)CO [Dexamethasone] (10000 nM)

1. 99.1
2. 87.8
3. 19.1
4. 82

* * *

tested on: DU-4475; test: normalised response (% of control), CellTox Green; higher = less cell death (100 = DMSO, 0 = benzethonium chloride kill control); conditions: incubation time: 72 h
quantity kind: normalised response (%)
Numbers only, in %.

Solved cases below.
{"compound": "COc1cc2c(Oc3ccc(NC(=O)C4(C(=O)Nc5ccc(F)cc5)CC4)cc3F)ccnc2cc1OCCCN1CCOCC1 [Foretinib] (100 nM)", "display unit": "%", "normalised response": 101}
{"compound": "CCc1cnn2c(NCc3ccc[n+]([O-])c3)cc(N3CCCC[C@H]3CCO)nc12 [Dinaciclib] (1000 nM)", "display unit": "%", "normalised response": 90.4}
{"compound": "CCc1c(C(=O)C(N)=O)c2c(OCC(=O)O)cccc2n1Cc1ccccc1 [Varespladib] (1000 nM)", "display unit": "%", "normalised response": 102}
{"compound": "C[C@@H](C(=O)O)c1ccc(-c2ccccc2)c(F)c1 [Tarenflurbil] (10000 nM)", "display unit": "%", "normalised response": 101}

From here, focus on the item given below.
Print DU-4475 normalised response for CC[C@@H]1C(=O)N(C)c2cnc(Nc3ccc(C(=O)N[C@H]4CC[C@H](N5CCN(CC6CC6)CC5)CC4)cc3OC)nc2N1C(C)C [Volasertib] (1000 nM) .
90.4

* * *

tested on: MDA-MB-436; assay: normalised viability (% of control), CellTiter-Blue; higher = more viable cells (about 100 = DMSO control); details: 100 nM; incubation time: 72 h
quantity kind: normalised viability (%)
Give bare numbers, in %.

Take a look at these entries with their results.
{"compound": "Nc1nc(Cl)nc2c1ncn2[C@@H]1O[C@H](CO)[C@@H](O)[C@@H]1F", "normalised viability (%)": 77}
{"compound": "C[C@@H]1C[C@H]2[C@@H]3CCC4=CC(=O)C=C[C@]4(C)[C@@]3(F)[C@@H](O)C[C@]2(C)[C@@]1(O)C(=O)CO", "normalised viability (%)": 94.9}
{"compound": "Cn1nnc2c(C(N)=O)ncn2c1=O [Temozolomide]", "normalised viability (%)": 94.5}

Let us move to another entry and its normalised viability.
Dear colleague, please send me the reported normalised viability for O=NN(CCCl)C(=O)NC1CCCCC1 when you can.
102
